The measured values listed here are drawn from PubChem BioAssay.

- procedure-text: OD615 S. cerevisiae growth inhibition, permissive medium, pilot counter-assay, permissive growth control for S. cerevisiae lifespan shortening project (AID 705)
- setup-conditions: OD615, 24 h, at 10 µM, stronger effect = higher value
observable: growth inhibition (%)
Numeric only. Scale: %

Record COc1cc(-c2nc3cnccn3c2Nc2ccc3c(c2)OCCO3)ccc1O , field growth inhibition: -15.6

Record O=S(=O)(NCCc1csc(-c2cccnc2)n1)c1cccs1 , field growth inhibition: 1.37

Record Cc1cc(NC(=O)CSCc2nc(-c3cccc(Cl)c3)oc2C)no1 , field growth inhibition: -12.6

Record CCOc1ccc2[nH]cc(S(=O)(=O)c3ccc(F)cc3)c(=O)c2c1 , field growth inhibition: -4.64
